Assay: qHTS assay to identify small molecule agonists of the estrogen related receptor (ERR) signaling pathway (AID 1224820)
Conditions: ERR reporter cell line, luciferase agonist mode; series mostly up to 46.1 µM
Results filed as inconclusive are left out. Active and inactive are the calls of the source. Calls follow the shape of the dose curve; as a rule, active = well fitted activation curve with a large enough effect in the repeat runs; inconclusive = weak or mixed curves; inactive = no such curve, though single readings can be large or run the other way.
Possible outcomes: 1 (active), -1 (inactive)

* CCCN(CCC)[C@@H]1CCc2ccc(O)cc2C1 | -1
* CCCN(CCC)CCc1ccc(O)c(O)c1 | -1
* CC(C)CC(NP(=O)(O)O[C@@H]1O[C@@H](C)[C@H](O)[C@@H](O)[C@H]1O)C(=O)NC(Cc1c[nH]c2ccccc12)C(=O)O (stereo partly specified) | -1
* C#CCOC(=O)C1=CCCN(C)C1 | 1
* NC(CCP(=O)(O)O)C(=O)O (stereo unspecified) | -1
* CCOC(=O)c1ncn2c1[C@@H]1CCCN1C(=O)c1cc(OC)ccc1-2 | -1

###

Assay: qHTS assay for small molecule agonists of the p53 signaling pathway - cell viability (AID 651633); also: nearly all actives have a fitted effect of over 30% in size
Details: p53RE-bla HCT-116 viability, ATP luminescence, 16 h; series mostly up to 83.3 µM
Results filed as inconclusive are left out. Active and inactive are the calls of the source. Calls follow the shape of the full dose curve.
Possible outcomes: active, inactive

• O=C1CN=C(c2ccccc2)c2cc(Cl)ccc2N1 = inactive
• COC(COC(N)=O)C1=C(N2CC2)C(=O)C(C)=C(N2CC2)C1=O (centres undefined) = active
• CN[C@H]1C[C@@H](N)[C@H](O)[C@@H](O[C@@H]2O[C@H](CO)[C@H](O)[C@@H]3OC4(O[C@H]23)O[C@H](C(N)CO)[C@H](O)[C@H](O)[C@H]4O)[C@@H]1O (some centres undefined) = inactive
• CC[N+](C)(CC)CCOC(=O)C(O)(c1ccccc1)c1ccccc1 = inactive
• COC(=O)[C@@H]1[C@H]2CC[C@@H](C[C@H]1OC(=O)c1ccccc1)N2C = inactive
• CCC1(c2cnc[nH]2)Cc2ccccc2C1 = inactive
• c1cc2c(c(NC3=NCCN3)c1)CCCC2 = inactive
• Cc1cc(C(C)(C)c2ccc(O)c(C)c2)ccc1O = inactive
• C[C@@H](CO)NC(=O)[C@@H]1C=C2c3cccc4[nH]cc(c34)C[C@H]2N(C)C1 = inactive
• CCN(CC)CCO[C@H]1CC[C@@]2(C)C(=CC[C@@H]3[C@@H]2CC[C@]2(C)C(=O)CC[C@@H]32)C1 = inactive
• [H+].[H+].[Hg+2].[O-]B([O-])[O-].[c-]1ccccc1 = active
• CC(=O)OCC(=O)[C@H]1CC[C@H]2[C@@H]3CC[C@H]4C[C@H](O)CC[C@]4(C)[C@H]3C(=O)C[C@]12C = inactive
• CC(C)[C@@]1(NC(=O)[C@@H]2C[C@@H]3c4cccc5[nH]cc(c45)C[C@H]3N(C)C2)O[C@@]2(O)[C@@H]3CCCN3C(=O)[C@H](Cc3ccccc3)N2C1=O = inactive
• Cc1ccccc1-n1c(CF)nc2ccc(N)cc2c1=O = inactive
• O=C1CCCCC1CN1CCCCC1 (centres undefined) = inactive
• CCNC1(c2cccs2)CCCCC1=O (centres undefined) = inactive
• COc1ccc2c3c1O[C@H]1[C@@H](O)C=C[C@H]4[C@@H](C2)NCC[C@@]341 = inactive
• CN(C)CCCCCCN(C)C (tested in a mixture with another compound) = inactive
• C=CCC1(C(C)CCC)C(=O)N=C(S)NC1=O (centres undefined) = inactive
• c1ccc2c(c1)Sc1ccccc1N2C[C@@H]1CN2CCC1CC2 = inactive
• Clc1ccc2c(c1)C(c1ccccc1)=NCc1nncn1-2 = inactive
• CC(=O)OO = inactive
• CCN1C[C@]2(COC)[C@H](O)C[C@H](OC)[C@@]34[C@@H]5C[C@@]6(O)[C@H](OC(=O)c7ccccc7)[C@@H]5[C@@](OC(C)=O)([C@@H]([C@H](OC)[C@H]23)[C@@H]14)[C@@H](O)[C@@H]6OC = inactive
• c1csc(C2(N3CCCCC3)CCCCC2)c1 = inactive
• CC(=O)O[C@H]1C[C@H](O[C@H]2[C@@H](O)C[C@H](O[C@H]3[C@@H](O)C[C@H](OC4CC[C@@]5(C)[C@H](CC[C@@H]6[C@@H]5CC[C@]5(C)[C@@H](C7=CC(=O)OC7)CC[C@]65O)C4)O[C@@H]3C)O[C@@H]2C)O[C@H](C)[C@H]1O[C@@H]1O[C@H](CO)[C@@H](O)[C@H](O)[C@H]1O (some centres undefined) = active
• CC(=O)Oc1ccc2c3c1O[C@H]1[C@@H](OC(C)=O)C=C[C@H]4[C@@H](C2)N(C)CC[C@@]341 = inactive
• O=C(O)CCCO = inactive
• c1ccc(C2(c3ccccc3)CC2C2=NCCN2)cc1 (centres undefined) = inactive
• C[C@@H]1[C@H]2Cc3ccc(O)cc3[C@]1(C)CCN2C = inactive
• O=C(O)/C=C\C(=O)O = inactive
• O=c1[nH]cc(N(CCCl)CCCl)c(=O)[nH]1 = inactive
• Cc1nnc2n1-c1ccc(Cl)cc1C(c1ccccc1Cl)=NC2 = inactive
• CCC1(C)CC(=O)NC(=O)C1 = inactive
• CC(C)C[C@H](CN)CC(=O)O = inactive
• CC1(C)[C@H](C=C(Cl)Cl)[C@H]1C(=O)OCc1c(F)c(F)cc(F)c1F = inactive
• CCCCCCCCCC(=O)O[C@H]1CC[C@H]2[C@@H]3CCC4=CC(=O)CC[C@]4(C)[C@H]3CC[C@]12C = inactive
• Cc1cc(C)cc(C(=O)OC2C[C@H]3CC[C@@H](C2)N3C)c1 (some centres undefined) = inactive
• C[N+]1(C)CCCCC1COC(=O)C(O)(c1ccccc1)c1ccccc1 (centres undefined) = inactive
• C[C@]12CC[C@H](OS(=O)(=O)O)CC1=CC[C@@H]1[C@@H]2CC[C@]2(C)C(=O)CC[C@@H]12 = inactive
